# System: NCI-H322M
# run_description: NCI-60 anticancer screen (SRB; single dose and five doses)
# measurement_setup: Homo sapiens, read-out: TGI
// values below are reported IC (TGI)
metric_name: IC (TGI) (µM)

                                   compound  metric_name  endpoint_unit  observed_result
0  Cc1[nH]c(=S)sc1C(=O)/C=C/c1cccc(Cl)c1 [2e]     IC (TGI)             µM             26.3
1  Cc1[nH]c(=S)sc1C(=O)/C=C/c1cccc([N+](=O)[O-])c1 [2h]     IC (TGI)             µM             21.9
2  Cc1[nH]c(=S)sc1C(=O)/C=C/c1ccc(Br)cc1 [2g]     IC (TGI)             µM             15.2
3  Cc1[nH]c(=S)sc1C(=O)/C=C/c1ccc([N+](=O)[O-])cc1 [2i]     IC (TGI)             µM             24.5
4  Cc1[nH]c(=S)sc1C(=O)/C=C/c1ccc(Cl)cc1 [2f]     IC (TGI)             µM             22.9
5  COc1cc(/C=C/C(=O)c2sc(=S)[nH]c2C)cc(OC)c1OC [2p]     IC (TGI)             µM             18.6
6  Cc1[nH]c(=S)sc1C(=O)/C=C/c1ccc(F)cc1 [2c]     IC (TGI)             µM             17.9

====

// values below are reported IC (TGI)
# System: EKVX
# run_description: NCI-60 anticancer screen (SRB; single dose and five doses)
# measurement_setup: Homo sapiens, read-out: TGI
metric_name: IC (TGI) (µM)

                                   molecule   tgt  metric_name  observed_result
0  COc1cc(/C=C/C(=O)c2sc(=S)[nH]c2C)cc(OC)c1OC [2p]  EKVX     IC (TGI)             22.9
1  Cc1[nH]c(=S)sc1C(=O)/C=C/c1ccc(F)cc1 [2c]  EKVX     IC (TGI)             28.7
2  Cc1[nH]c(=S)sc1C(=O)/C=C/c1ccc([N+](=O)[O-])cc1 [2i]  EKVX     IC (TGI)             30.9
3  Cc1[nH]c(=S)sc1C(=O)/C=C/c1ccc(Cl)cc1 [2f]  EKVX     IC (TGI)             26.3
4  COc1ccc(/C=C\c2cc(OC)c(OC)c(OC)c2)cc1O [CA-4, Combretastatin-A4, reference compound]  EKVX     IC (TGI)               82
5  Cc1[nH]c(=S)sc1C(=O)/C=C/c1ccc(Br)cc1 [2g]  EKVX     IC (TGI)             23.3
6  Cc1[nH]c(=S)sc1C(=O)/C=C/c1cccc(Cl)c1 [2e]  EKVX     IC (TGI)             31.6
7  Cc1[nH]c(=S)sc1C(=O)/C=C/c1cccc([N+](=O)[O-])c1 [2h]  EKVX     IC (TGI)             19.5

====

# Tested on: A498
# run_description: NCI-60 anticancer screen (SRB; single dose and five doses)
# measurement_setup: Homo sapiens, A498, read-out: LC50
Under this convention, True denotes CC50 strictly below 60 µM and False denotes CC50 at or above 60 µM.

>>> print(df.to_string())
                                   compound  qualitative_label
0  Cc1[nH]c(=S)sc1C(=O)/C=C/c1ccc([N+](=O)[O-])cc1 [2i]               True
1  COc1cc(/C=C/C(=O)c2sc(=S)[nH]c2C)cc(OC)c1OC [2p]              False
2  Cc1[nH]c(=S)sc1C(=O)/C=C/c1cccc([N+](=O)[O-])c1 [2h]               True
3  Cc1[nH]c(=S)sc1C(=O)/C=C/c1ccc(Br)cc1 [2g]               True
4  Cc1[nH]c(=S)sc1C(=O)/C=C/c1ccc(F)cc1 [2c]               True
5  Cc1[nH]c(=S)sc1C(=O)/C=C/c1ccc(Cl)cc1 [2f]               True
6  Cc1[nH]c(=S)sc1C(=O)/C=C/c1cccc(Cl)c1 [2e]              False

====

# System: LOX IMVI
# run_description: NCI-60 anticancer screen (SRB; single dose and five doses)
# measurement_setup: Homo sapiens
pIC50: −log10 of the molar value.
metric_name: pIC50

>>> df
                                        smi  metric_name  observed_result
0  Cc1[nH]c(=S)sc1C(=O)/C=C/c1cccc([N+](=O)[O-])c1        pIC50             5.56
1  COc1cc(/C=C/C(=O)c2sc(=S)[nH]c2C)cc(OC)c1OC        pIC50             5.35
2     Cc1[nH]c(=S)sc1C(=O)/C=C/c1ccc(Cl)cc1        pIC50             5.35
3     Cc1[nH]c(=S)sc1C(=O)/C=C/c1cccc(Cl)c1        pIC50             5.54

====

# System: MOLT-4
# run_description: NCI-60 anticancer screen (SRB; single dose and five doses)
# measurement_setup: Homo sapiens, MOLT-4, read-out: LC50
metric_name: CC50

                                        smi     tgt  observed_result
0     Cc1[nH]c(=S)sc1C(=O)/C=C/c1ccc(Cl)cc1  MOLT-4         > 100 µM
1     Cc1[nH]c(=S)sc1C(=O)/C=C/c1ccc(Br)cc1  MOLT-4         > 100 µM
2  Cc1[nH]c(=S)sc1C(=O)/C=C/c1ccc([N+](=O)[O-])cc1  MOLT-4         > 100 µM
3  COc1cc(/C=C/C(=O)c2sc(=S)[nH]c2C)cc(OC)c1OC  MOLT-4         > 100 µM
4  Cc1[nH]c(=S)sc1C(=O)/C=C/c1cccc([N+](=O)[O-])c1  MOLT-4         > 100 µM
5     Cc1[nH]c(=S)sc1C(=O)/C=C/c1cccc(Cl)c1  MOLT-4         > 100 µM
6      Cc1[nH]c(=S)sc1C(=O)/C=C/c1ccc(F)cc1  MOLT-4         > 100 µM

====

# System: MOLT-4
# run_description: NCI-60 anticancer screen (SRB; single dose and five doses)
# measurement_setup: Homo sapiens, MOLT-4, 48 h, read-out: Growth Percentage
// values below are reported activity at 10 µM
metric_name: activity at 10 µM

In [3]: df
Out[3]:
                                         smi     tgt  observed_result
 0  Cc1[nH]c(=S)sc1C(=O)/C=C/c1ccc(N(C)C)cc1  MOLT-4            62.1%
 1   COc1cccc(/C=C/C(=O)c2sc(=S)[nH]c2C)c1OC  MOLT-4            36.8%
 2  COc1cc(/C=C/C(=O)c2sc(=S)[nH]c2C)cc(OC)c1OC  MOLT-4            9.11%
 3      Cc1[nH]c(=S)sc1C(=O)/C=C/c1cccc(F)c1  MOLT-4            43.6%
 4     COc1ccc(/C=C/C(=O)c2sc(=S)[nH]c2C)cc1  MOLT-4            81.5%
 5       Cc1[nH]c(=S)sc1C(=O)/C=C/c1ccccc1Cl  MOLT-4            84.2%
 6   COc1ccc(/C=C/C(=O)c2sc(=S)[nH]c2C)cc1OC  MOLT-4            73.8%
 7  Cc1[nH]c(=S)sc1C(=O)/C=C/c1cccc([N+](=O)[O-])c1  MOLT-4            13.3%
 8      Cc1[nH]c(=S)sc1C(=O)/C=C/c1ccc(F)cc1  MOLT-4            58.7%
 9  COc1ccc(/C=C/C(=O)c2sc(=S)[nH]c2C)c(OC)c1  MOLT-4            72.3%
10     Cc1[nH]c(=S)sc1C(=O)/C=C/c1ccc(Cl)cc1  MOLT-4            10.2%
